# Tested on: Vero E6 infected with SARS-CoV-2
# Assay: inhibition of SARS-CoV-2 cytopathic effect; higher = more antiviral protection, active = above 15
# Measurement setup: 100 nM; 48 h
Measured quantity: inhibition of SARS-CoV-2 cytopathic effect (%)

INSERT INTO assay_data (compound, tested_on, meas_value) VALUES
  ('CN(CCOc1ccc(NS(C)(=O)=O)cc1)CCc1ccc(NS(C)(=O)=O)cc1 [dofetilide]', 'Vero E6 infected with SARS-CoV-2', -1.55),
  ('C[C@H](Cc1ccc2c(c1)OC(C(=O)O)(C(=O)O)O2)NC[C@H](O)c1cccc(Cl)c1', 'Vero E6 infected with SARS-CoV-2', -1.72),
  ('COc1ccc(NC(=O)c2ccc(C(=N)N(C)C)cc2)c(C(=O)Nc2ccc(Cl)cn2)c1 [betrixaban]', 'Vero E6 infected with SARS-CoV-2', -0.6),
  ('COC1CCN(C(=O)c2cc(Cc3n[nH]c(=O)c4ccccc34)ccc2F)CC1', 'Vero E6 infected with SARS-CoV-2', 4.58),
  ('N#Cc1ccccc1OCC(O)CNCCNC(=O)Nc1ccccc1 (configuration not stated)', 'Vero E6 infected with SARS-CoV-2', -0.54),
  ('CC1CNc2c(cccc2S(=O)(=O)N[C@@H](CCCNC(=N)N)C(=O)N2CC[C@@H](C)C[C@@H]2C(=O)O)C1 (mixture of isomers) [argatroban]', 'Vero E6 infected with SARS-CoV-2', 0.37),
  ('Cc1cc(SCc2sc(-c3ccc(C(F)(F)F)cc3)nc2C)ccc1OCC(=O)O', 'Vero E6 infected with SARS-CoV-2', 0.1),
  ('CN(C)CCC(c1ccccc1)c1ccccn1 (configuration not stated) [pheniramine]', 'Vero E6 infected with SARS-CoV-2', 0.29),
  ('C[C@@H]1CC[C@@]2(NC1)O[C@H]1C[C@H]3[C@@H]4CC=C5C[C@@H](O[C@@H]6O[C@H](CO)[C@@H](O[C@@H]7O[C@@H](C)[C@H](O)[C@@H](O)[C@H]7O)[C@H](O)[C@H]6O[C@@H]6O[C@@H](C)[C@H](O)[C@@H](O)[C@H]6O)CC[C@]5(C)[C@H]4CC[C@]3(C)[C@H]1[C@@H]2C [solamargine]', 'Vero E6 infected with SARS-CoV-2', 0.07),
  ('Cc1cc(C)c(Nc2ccnc(Nc3ccc(C#N)cc3)n2)c(C)c1 [dapivirine]', 'Vero E6 infected with SARS-CoV-2', 0.06),
  ('CCOc1ccc(/C=C2\NCCc3cc(OCC)c(OCC)cc32)cc1OCC [drotaverine]', 'Vero E6 infected with SARS-CoV-2', -0.04),
  ('CCCc1c2oc(C(=O)O)cc(=O)c2cc2c(=O)cc(C(=O)O)n(CC)c12 [nedocromil]', 'Vero E6 infected with SARS-CoV-2', 0.71),
  ('Clc1cccc(N2CCNCC2)c1', 'Vero E6 infected with SARS-CoV-2', -0.72),
  ('Cc1cccc(CN2CCN(C(c3ccccc3)c3ccc(Cl)cc3)CC2)c1 (configuration not stated) [meclizine]', 'Vero E6 infected with SARS-CoV-2', 2.18),
  ('N#CC[C@@H](C1CCCC1)n1cc(-c2ncnc3[nH]ccc23)cn1 [ruxolitinib-(S)]', 'Vero E6 infected with SARS-CoV-2', -1.21),
  ('CC1(C)OC[C@H](NC(=O)Nc2ccc(Br)cc2Br)[C@H](c2ccccc2)O1', 'Vero E6 infected with SARS-CoV-2', -2.04),
  ('CNCCC(Oc1ccc(C(F)(F)F)cc1)c1ccccc1 (configuration not stated) [fluoxetine]', 'Vero E6 infected with SARS-CoV-2', -2.53);
